Catalogue of compounds with associated GI50
test system: K-562 leukemia; assay: NCI tumour cell line growth inhibition, 48 h

Below are worked cases with known answers.
Entry under review: `Oc1ccc(-c2cn3cc(Cl)sc3n2)cc1` . Reported GI50? 36700 nM

Entry under review: `O=C(NC1CCCCC1)NS(=O)(=O)c1ccc(-n2nc3c(c2-c2ccc(Cl)cc2)Cc2ccccc2-3)cc1` . Reported GI50? 2150 nM

Entry under review: CC1OC(n2c3ccccc3c3c4c(c5c6ccccc6[nH]c5c32)C(=O)N(CCN2CCOCC2)C4=O)CC(O)C1O (centres undefined) . Reported GI50? 1850 nM

Further cases:
Entry under review: `COc1ccc(OC)c(/C=C2\COc3ccc(O)c(O)c3C2=O)c1` . Reported GI50? 2170 nM
